ASSAY NOTES: TRM-201-PK-102 single-dose four-period crossover pharmacokinetic study, fasted healthy subjects
Type: in vivo, human
CONDITIONS USED: human, plasma, oral, 25 mg, 102 study only, read-out: geometric mean Cmax
VALUE TYPE: Cmax (ng/mL)

| COMPOUND | EXPERIMENTAL RESULT |
| --- | --- |
| CS(=O)(=O)c1ccc(C2=C(c3ccccc3)C(=O)OC2)cc1 [TRM-201] | 341 |

----------
ASSAY NOTES: TRM-201-PK-102 single-dose four-period crossover pharmacokinetic study, fasted healthy subjects
Format: in vivo, human
CONDITIONS USED: human, plasma, oral, 20 mg, 102 study, body weight 77.1-90 kg, read-out: arithmetic mean Cmax

| COMPOUND STRUCTURE | Cmax (µg/mL) |
| --- | --- |
| CS(=O)(=O)c1ccc(C2=C(c3ccccc3)C(=O)OC2)cc1 | 0.238 |

Attribution: patent US10945992B1
